# method-notes: Solubility of rizatriptan in supercritical CO2, static gravimetric method
# Assay type: physicochemical
# experimental-conditions: supercritical CO2, T 338.0 K (text 338.2 K), P 30 MPa, ρCO2 809.68 kg/m^3; read-out: Solubility in supercritical carbon dioxide
assay-metric: solubility at 240 min (µg/mL)
Number only, in µg/mL; omit the unit.

Quick one: solubility at 240 min of CN(C)CCc1c[nH]c2ccc(Cn3cncn3)cc12 [Rizatriptan, Rizatriptan benzoate] ?
302

====

# method-notes: Preliminary tests of equilibration time for solubility in SC-CO2 (Table S1)
# Type: physicochemical
# experimental-conditions: supercritical CO2, 65 °C, organic solvent or mixture, thermodynamic from solid; T 338, P 30, Time 150; read-out: Solubility (preliminary test)
assay-metric: solubility at 150 min (µg/mL)
Record the value in µg/mL, omitting the unit from your answer.

Entry CN(C)CCc1c[nH]c2ccc(Cn3cncn3)cc12 [Rizatriptan, Rizatriptan benzoate] has what solubility at 150 min?
279

====

# method-notes: Solubility of rizatriptan in supercritical CO2, static gravimetric method
# Format: physicochemical
# experimental-conditions: supercritical CO2, T 318.0 K (text 318.2 K), P 12 MPa, ρCO2 659.80 kg/m^3; read-out: Solubility in supercritical carbon dioxide
assay-metric: solubility at 240 min (µg/mL)
Give a bare numeral; the unit µg/mL is implied.

Can you share its solubility at 240 min? I mean this compound: CN(C)CCc1c[nH]c2ccc(Cn3cncn3)cc12 [Rizatriptan, Rizatriptan benzoate]
40.6

====

# method-notes: Solubility of rizatriptan in supercritical CO2, static gravimetric method
# Type: physicochemical
# experimental-conditions: supercritical CO2, T 308.0 K (text 308.2 K), P 21 MPa, ρCO2 874.55 kg/m^3; read-out: Solubility in supercritical carbon dioxide
assay-metric: solubility at 240 min (µg/mL)
Expressed in µg/mL, but write only the number.

Returns the measured solubility at 240 min for the input molecule. Input: CN(C)CCc1c[nH]c2ccc(Cn3cncn3)cc12 [Rizatriptan, Rizatriptan benzoate]
138

====

# method-notes: Solubility of rizatriptan in supercritical CO2, static gravimetric method
# Assay type: physicochemical
# experimental-conditions: supercritical CO2, T 328.0 K (text 328.2 K), P 24 MPa, ρCO2 801.92 kg/m^3; read-out: Solubility in supercritical carbon dioxide
assay-metric: solubility at 240 min (µg/mL)
# number only, unit µg/mL dropped from output

Recorded solubility at 240 min for CN(C)CCc1c[nH]c2ccc(Cn3cncn3)cc12 [Rizatriptan, Rizatriptan benzoate] , please?
216

====

# method-notes: Solubility of rizatriptan in supercritical CO2, static gravimetric method
# Type: physicochemical
# experimental-conditions: supercritical CO2, 308.2 K to 338.2 K, 12 to 30 MPa; read-out: solubility (dissolution concentration) in SC-CO2, range over all conditions
# Experimental: A specialized high-pressure system is employed to measure the solubility of rizatriptan using gravimetric techniques in a supercritical CO2[6]. A 200 mL vessel capable of withstanding pressures up to 35 MPa and temperatures up to 423 K is prepared with leak-free seals, valves, and fittings. All valves and connectors were 1/8 inch in size. The system’s pressure and temperature sensors are calibrated for accuracy. […] The pressure is monitored and held within ± 0.01 MPa. […]
assay-metric: solubility at 240 min

Recorded solubility at 240 min of CN(C)CCc1c[nH]c2ccc(Cn3cncn3)cc12 [Rizatriptan, Rizatriptan benzoate] , please.
8 to 302 µg/mL
